biological target: PDE 10A (Homo sapiens (Human))
Sequence (Q9Y233 whole entry, species assumed): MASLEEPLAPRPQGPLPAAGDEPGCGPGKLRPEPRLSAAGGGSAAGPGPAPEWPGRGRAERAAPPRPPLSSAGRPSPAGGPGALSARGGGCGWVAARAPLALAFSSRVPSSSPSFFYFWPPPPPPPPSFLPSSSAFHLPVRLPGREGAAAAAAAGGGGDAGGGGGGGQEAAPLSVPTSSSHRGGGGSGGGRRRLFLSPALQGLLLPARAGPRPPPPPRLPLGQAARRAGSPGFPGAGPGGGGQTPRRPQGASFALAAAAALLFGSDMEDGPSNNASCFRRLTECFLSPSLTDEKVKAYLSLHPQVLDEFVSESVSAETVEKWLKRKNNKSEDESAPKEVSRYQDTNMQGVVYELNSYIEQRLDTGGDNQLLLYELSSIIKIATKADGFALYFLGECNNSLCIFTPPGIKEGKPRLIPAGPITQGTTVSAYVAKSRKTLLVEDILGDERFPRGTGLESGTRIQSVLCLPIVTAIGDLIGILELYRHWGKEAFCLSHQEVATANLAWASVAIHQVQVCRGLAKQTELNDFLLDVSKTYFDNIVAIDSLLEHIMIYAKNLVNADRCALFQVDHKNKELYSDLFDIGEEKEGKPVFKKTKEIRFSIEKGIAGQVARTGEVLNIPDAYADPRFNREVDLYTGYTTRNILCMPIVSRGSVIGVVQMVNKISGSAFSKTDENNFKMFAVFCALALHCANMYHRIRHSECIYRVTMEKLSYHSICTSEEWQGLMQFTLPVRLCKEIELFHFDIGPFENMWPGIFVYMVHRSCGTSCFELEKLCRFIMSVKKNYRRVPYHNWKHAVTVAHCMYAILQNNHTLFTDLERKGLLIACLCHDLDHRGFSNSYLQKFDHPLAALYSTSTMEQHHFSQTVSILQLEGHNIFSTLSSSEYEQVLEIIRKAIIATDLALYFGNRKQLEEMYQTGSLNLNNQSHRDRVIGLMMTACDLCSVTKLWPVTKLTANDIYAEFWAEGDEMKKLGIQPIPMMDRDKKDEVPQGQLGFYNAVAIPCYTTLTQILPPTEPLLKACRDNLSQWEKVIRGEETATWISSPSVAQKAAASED
pIC50: −log10 of the molar value.
recorded-endpoint: pIC50

Q: Fill blank: measured pIC50 of the compound Cc1nc2cccnc2n2c(-c3cc(OCCO)ccc3Cl)nnc12 is ____.
A: < 5.00

----------
experiment: Metabolic stability in pooled liver microsomes; format: in vitro ADME, human; conditions: human liver microsomes, 1 μM test compound, 37° C.
recorded-endpoint: Half-life - t½ (h)
Write the value in h as a bare number.

Worked cases, answers included:
Cc1nc2ccc(C3CC3)nc2n2c(-c3cc(OCC(C)(C)O)ccc3Cl)nnc12 ... 2.17
Cc1nc2cccnc2n2c(-c3cc(C4(O)CCOC4)ccc3Cl)nnc12 (single isomer, unassigned) ... 2.17
Cc1ccc2nc(C)c3nnc(-c4cc(C5(O)CCC5)ccc4Cl)n3c2n1 ... 2.17
Cc1ccc(OC2COCC2O)cc1-c1nnc2c(C)nc3ccc(C4CC4)nc3n12 (single isomer, unassigned) [Example 57a] ... 2.17
Cc1ccc(CCC(C)(C)O)cc1-c1nnc2c(C)nc3cccnc3n12 ... 2.17
Cc1nc2ccc(C3CC3)nc2n2c(-c3cc(OC4COCC4O)ccc3Cl)nnc12 (single isomer, unassigned) [Example 58c] ... 2.17

Now, please, on to the next molecule.
Q: Fill blank: measured Half-life - t½ of the molecule Cc1ccc(C2(O)CCOCC2O)cc1-c1nnc2c(C)nc3ccc(C4CC4)nc3n12 (single isomer, unassigned) [Example 104a] is ____.
A: 2.17

Numbers sourced from patent US9085584B2.
